# Tested on: Target C mRNA
# PROCEDURE TEXT: Splicing RT-qPCR gene panel, Target C canonical junction (CJ) mRNA
# Format: cell-based, human
# CONDITION NOTES: Homo sapiens, Tables 4A/4B, read-out: Target C (IC50, decrease in CJ mRNA, gene panel)
OBSERVABLE: IC50

| MOLECULE | OBSERVABLE | EXPERIMENTAL RESULT |
| --- | --- | --- |
| CC1=NC2C=C(NC(=O)c3ccc(N4CCNC(C)(C)C4)c4cn(C)nc34)C=C(F)C2=N1 (stereo not shown) [Compound 240] | IC50 | 1 to 10 µM |
| Cc1cn2cc(NC(=O)c3ccc(N4CCC(NC(C)(C)C)C4)c4cn(C)nc34)cc(F)c2n1 (stereo not shown) [Compound 249] | IC50 | > 10 µM |
| CCn1cc2c(N3CCNC4(CC4)C3)ccc(C(=O)Nc3cc(F)c4nc(C)cn4c3)c2n1 [Compound 379] | IC50 | 1 to 10 µM |
| Cc1cn2cc(NC(=O)c3ccc(N4CCNCC4)c4cn(CC5(C)COC5)nc34)cc(F)c2n1 [Compound 308] | IC50 | > 10 µM |
| Cc1cn2cc(NC(=O)c3ccc(N4CC[C@@H](NC5CC5)C4)n4cc(C)nc34)cc(F)c2n1 [Compound 965] | IC50 | 0.1 to 1 µM |
| Cc1cn2cc(NC(=O)c3ccc(N4CCNCC4)c4nc(C)oc34)cc(F)c2n1 [Compound 140] | IC50 | 1 to 10 µM |
| Cc1cn2cc(NC(=O)c3ccc(N4C[C@H]5CC[C@@H](C4)N5)c4cn(C)nc34)cc(F)c2n1 [Compound 260] | IC50 | 1 to 10 µM |
